measured target: Cys12 of the KRAS 4B G12C protein (Homo sapiens, UniProt P01116, G12C)
Construct: This protein contained 188 amino acids in total, including an N-terminal 6-Histidine tag; made in house; host or cells: E. coli BL21
protocol notes: In vitro covalent adduct formation (CAF) assay, LC-MS intact mass
Assay type: binding
test parameters: 10 uM compound, 60 min
Procedure: This Example provides a protocol for assessing covalent adduct formation (CAF) between the compounds of the present application and KRAS. In vitro covalent adduct formation assay: Covalent adduct formation (CAF) reactions between Cys12 of the KRAS 4B G12C protein and some of the compounds of Tables 1 to 4 were measured in vitro using liquid chromatography-mass spectrometry (LC-MS). Recombinant Human KRAS 4B protein containing the G12C mutation was used in compound screening experiments. […]
The label depends only on % CAF 10 uM @ 60 min: Yes if it is at least 90%, No if it is smaller.

C=CC(=O)N1[C@H](C)CN(c2nc(=O)n3c4c(c(-c5cc(Cl)c(F)cc5F)c(C(F)(F)F)cc24)SC[C@@H]3CN2CCN(C3CC3)CC2)C[C@@H]1C (atropisomer, axis not shown) [Example 1348] ... Yes

Continue with the compound presented below.
Assess whether reported % CAF 10 uM @ 60 min for C=CC(=O)N1[C@H](C)CN(c2nc(=O)n3c4c(c(-c5ccc(F)cc5)c(C(F)(F)F)cc24)SC[C@@H](COC)C3)C[C@@H]1C [Example 1407] sits at 90% or higher.
Yes
